- Test system: salicylate hydroxylase
- TEST PROTOCOL: Salicylate hydroxylase enzyme assay (NAD(P)H oxidation at 340 nm)
- Format: biochemical, Pseudomonas
REPORTED PROPERTY: inhibition of / interference with the enzyme activity

COMPOUND	RESULT
O=C(O)CN(CCN(CC(=O)O)CC(=O)O)CC(=O)O	do not inhibit
O=C(O)C(=O)O [oxalate]	do not inhibit
O=C(O)CC(O)(CC(=O)O)C(=O)O [citrate]	do not inhibit
